Molecular target: T1, NLpoly11S
T1 chain: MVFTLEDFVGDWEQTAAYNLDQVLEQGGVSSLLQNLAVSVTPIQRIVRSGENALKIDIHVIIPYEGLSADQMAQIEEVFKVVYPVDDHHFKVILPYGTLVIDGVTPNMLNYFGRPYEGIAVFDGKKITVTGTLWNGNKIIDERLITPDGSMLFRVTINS
Experiment: luminescence complementation titration, one-site specific binding fit
Listing of entries alongside the reported Bmax.

binder	Bmax
VEGYRLFKQAL (modifications not checked) [array2.86]	2300
VTGYRLFEKIL (modifications not checked) [array2.46]	219000
VTGYRLFEKAS (modifications not checked) [array2.20]	36300
VEGYRLFEQAL (modifications not checked) [array2.104]	9880
VTGYRLFEKAL (modifications not checked) [array2.47]	34500
VTGYRLFQEES (modifications not checked) [array2.18]	5110
VEGYRLFQEAL (modifications not checked) [array2.98]	2700
VEGYRLFKQEL (modifications not checked) [array2.87]	1790
VEGYRLFKQIL (modifications not checked) [array2.85]	31400
VTGYRLFEKEL (modifications not checked) [array2.48]	10900
VEGYRLFQQAL (modifications not checked) [array2.95]	38200
VTGYRLFKKAL (modifications not checked) [array2.29]	98600
VEGYRLFQEIS (modifications not checked) [array2.70]	29200
VTGYRLFKKIL (modifications not checked) [array2.28]	141000
VTGYRLFQQIL (modifications not checked) [array2.40]	66300
VEGYRLFQQIS (modifications not checked) [array2.67]	5220

The origin of these recorded values is patent US20200292534A1.
